target: T1, hERG, Q12809
T1 chain: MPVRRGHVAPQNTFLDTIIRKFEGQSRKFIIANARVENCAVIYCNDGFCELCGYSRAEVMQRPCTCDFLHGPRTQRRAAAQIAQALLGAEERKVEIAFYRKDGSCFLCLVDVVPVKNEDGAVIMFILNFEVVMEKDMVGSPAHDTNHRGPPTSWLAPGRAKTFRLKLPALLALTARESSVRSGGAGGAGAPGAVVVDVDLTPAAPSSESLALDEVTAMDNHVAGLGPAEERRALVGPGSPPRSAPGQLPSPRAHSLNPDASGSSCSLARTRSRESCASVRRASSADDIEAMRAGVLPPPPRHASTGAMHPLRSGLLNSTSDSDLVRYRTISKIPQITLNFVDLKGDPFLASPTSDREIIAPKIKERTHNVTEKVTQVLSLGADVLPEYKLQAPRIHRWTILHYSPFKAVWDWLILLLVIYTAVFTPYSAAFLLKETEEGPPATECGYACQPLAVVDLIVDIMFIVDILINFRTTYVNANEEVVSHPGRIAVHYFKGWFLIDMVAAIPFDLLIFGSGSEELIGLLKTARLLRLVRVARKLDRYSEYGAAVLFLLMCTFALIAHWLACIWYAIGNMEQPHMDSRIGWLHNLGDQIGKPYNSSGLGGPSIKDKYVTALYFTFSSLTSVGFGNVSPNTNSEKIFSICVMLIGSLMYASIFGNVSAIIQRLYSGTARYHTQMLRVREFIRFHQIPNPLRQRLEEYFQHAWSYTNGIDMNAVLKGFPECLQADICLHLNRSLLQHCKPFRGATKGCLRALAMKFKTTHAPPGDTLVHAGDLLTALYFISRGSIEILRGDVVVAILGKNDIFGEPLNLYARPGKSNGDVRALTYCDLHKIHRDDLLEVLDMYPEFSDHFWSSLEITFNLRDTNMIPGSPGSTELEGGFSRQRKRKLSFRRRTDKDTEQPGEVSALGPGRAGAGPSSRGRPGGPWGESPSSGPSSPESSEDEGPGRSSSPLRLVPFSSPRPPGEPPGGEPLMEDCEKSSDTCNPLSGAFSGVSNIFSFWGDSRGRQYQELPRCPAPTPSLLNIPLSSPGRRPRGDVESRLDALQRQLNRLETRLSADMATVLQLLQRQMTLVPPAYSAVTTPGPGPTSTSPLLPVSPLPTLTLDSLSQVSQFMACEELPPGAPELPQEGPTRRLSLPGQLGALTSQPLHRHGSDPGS
method notes: cell-based or functional assay
pIC50: −log10 of the molar value.
measured quantity: pIC50

binder	measured quantity	measured result
GNDCLGFWSACNPKNDKCCANLVCSSKHKWCKGKL (modifications not checked) [Hs1a]	pIC50	< 5.52
